B1: HDV Ribozyme (parent)
chain: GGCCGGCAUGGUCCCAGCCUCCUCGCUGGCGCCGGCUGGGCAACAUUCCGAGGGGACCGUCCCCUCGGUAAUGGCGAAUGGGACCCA

- Variants of: B1
- TEST PROTOCOL: self-cleavage, relative activity (ratio to wild type); higher = more cleavage; co-transcriptional
Each entry below carries its recorded self-cleavage.

G10C U46A = 0.525
C19A C66G = 0.115
U65G G67A = 0.812
C4A U65C = 0.567
G11C G25A = 0.0449
G29A G80C = 0.145

Can you look up the measured self-cleavage of U23A G67U for me? 0.849

Can you look up the measured self-cleavage of A70C C86G for me? 1.35

Can you look up the measured self-cleavage of C26A G53A for me? 0.845

Can you look up the measured self-cleavage of C19G G54U for me? 0.0594

Can you look up the measured self-cleavage of C66A C86A for me? 0.769
